meta.source: patent US20240101645A1

target: SARS-CoV-1 spike antigens (bead panel) (SARS-CoV-1, UniProt P59594 14-1195); assay: multiplex bead assay
measured-parameter: binding result

{"columns": ["binder", "measured-parameter", "experimental-result"],
 "data": [
  ["COV_3053 (antibody, V domains shown, human IgG1) VH: EVQLVESGGGLVQPGRSLRLSCTASGFTLGDYAMTWVRQAPGKGLEWLGIIRNKRYGETKQYAASVKGRFTFSRDDSKGIGYLQRLSLKIEDTGVYYCTREHIVRDDAFDVWGQGTTVTVSS VL: DIVMTQSPDSLAVSLGERATINCKSSQSVLYSSNNKNYIAWYQQRPGQPPKLLIYWTSTRASGVPDRFSGSGSGTDFALTISSLQAEDVAVYYCQQYYTIPRTFGQGTKVEIK", "binding result", "no binding"],
  ["COV_2014 (antibody, V domains shown, human IgG1) VH: QVQLVQSGAEVKKPGASVKVSCKVSGYTLTELSMHWVRQAPGKGLEWMGGFDPEDGETIYAQKFQGRVTMTEDTSTDTAYMELSSLRSEDTAVYYCATGKINYYDSSGYYGTFDYWGQGTLVTVSS VL: AIQLTQSPSSLSASVGDRVTITCRASQGISSYLAWYQQKPGKAPKLLIYAASTLQSGVPSRFSGSGSGTDFTLTISSLQPEDFATYYCQQLNSYHLTFGQGTRLEIK", "binding result", "no binding"]
]}
